The following compounds each carry a recorded AC50 for Mu-type opioid receptor (Homo sapiens).

The reported AC50 value, Mu-type opioid receptor (Homo sapiens), for CCCC(C)(COC(N)=O)COC(=O)NC(C)C (centres undefined) [CARISOPRODOL] reads > 30 µM

Bench note, Mu-type opioid receptor (Homo sapiens): entry COC(=O)[C@H](c1ccccc1Cl)N1CCc2sccc2C1 [CLOPIDOGREL] , its AC50 = 13 µM

So the reported AC50 for CC1(C)O[C@@H]2[C@@H](CO[C@@]3(COS(N)(=O)=O)OC(C)(C)O[C@@H]23)O1 [TOPIRAMATE] , on Mu-type opioid receptor (Homo sapiens), turned out to be > 10 µM
